Target: recombinant human MMP-2 (Homo sapiens, UniProt P08253)
Sequence (P08253 110-660): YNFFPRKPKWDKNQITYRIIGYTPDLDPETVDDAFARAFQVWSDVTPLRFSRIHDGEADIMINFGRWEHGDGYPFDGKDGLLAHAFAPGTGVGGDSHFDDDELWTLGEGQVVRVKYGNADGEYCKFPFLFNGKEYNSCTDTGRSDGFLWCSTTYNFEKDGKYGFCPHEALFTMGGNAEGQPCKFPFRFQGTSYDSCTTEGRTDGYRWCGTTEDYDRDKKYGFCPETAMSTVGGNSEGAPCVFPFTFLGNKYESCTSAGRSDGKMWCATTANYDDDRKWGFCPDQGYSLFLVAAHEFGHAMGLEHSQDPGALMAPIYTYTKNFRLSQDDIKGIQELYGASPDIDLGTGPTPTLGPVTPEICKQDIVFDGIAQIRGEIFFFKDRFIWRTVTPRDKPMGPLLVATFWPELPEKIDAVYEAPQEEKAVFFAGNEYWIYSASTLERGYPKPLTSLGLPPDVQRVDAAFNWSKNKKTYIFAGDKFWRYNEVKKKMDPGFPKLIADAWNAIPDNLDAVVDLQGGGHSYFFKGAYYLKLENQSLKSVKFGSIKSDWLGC
Assay: biochemical
Conditions: MMP-2 IC50 (nM)
Readout name: IC50 (nM)
A number alone suffices; assume nM.

IN: Endpoint output: IC50 of O=C(NO)C1(S(=O)(=O)c2ccc(N3CCC(c4ccccc4)CC3)cc2)CCOCC1 [Example 11] . Value?
OUT: 4.4

IN: O=C(NO)C1(S(=O)(=O)c2ccc(Oc3ccccc3)cc2)CCN(C2CC2)CC1 [Example 17] , same question.
OUT: 0.2

IN: CS(=O)(=O)N1CCC(C(=O)NO)(S(=O)(=O)c2ccc(Oc3ccccc3)cc2)CC1 [Example 18] , same question.
OUT: 0.3

IN: O=C(NO)C1(S(=O)(=O)c2ccc(N3CCN(c4ccccc4)CC3)cc2)CCOCC1 [Example 20] , same question.
OUT: 23.5

====

Molecular target: recombinant human MMP-13 (Homo sapiens)
Assay: biochemical
Conditions: Inhibition Table A; read-out: MMP-13 IC50
Readout name: pIC50
Schema: pIC50 number; meaning minus log10 of the concentration expressed in molar units.

IN: Endpoint output: pIC50 of "C#CCN1CCC(C(=O)NO)(S(=O)(=O)c2ccc(Sc3ccc(F)cc3)cc2)CC1" . Value?
OUT: 9.40

IN: "O=C(NO)C1(S(=O)(=O)c2ccc(Oc3ccccc3)cc2)CCNCC1" , same question.
OUT: 9.46

IN: "O=C(NO)C1(S(=O)(=O)c2ccc(Sc3ccc(F)cc3)cc2)CCNCC1" , same question.
OUT: 8.92

IN: "CC(C)(C)OC(=O)N1CCC(C(=O)NO)(S(=O)(=O)c2ccc(Oc3ccccc3)cc2)CC1" , same question.
OUT: 9.52

IN: "O=C(NO)C1(S(=O)(=O)c2ccc(SC3CCCCC3)cc2)CCNCC1" , same question.
OUT: 8.05

IN: "O=C(NO)C1(S(=O)(=O)c2ccc(Oc3ccc(-n4cncn4)cc3)cc2)CCOCC1" , same question.
OUT: 9.30

IN: "O=C(Nc1ccc(S(=O)(=O)C2(C(=O)NO)CCNCC2)cc1)c1ccccc1" , same question.
OUT: 7.62

IN: "CC(C)(C(=O)NO)S(=O)(=O)c1ccc(Oc2ccccc2)cc1" , same question.
OUT: 9.60

IN: "O=C(NO)C1(S(=O)(=O)c2ccc(N3CCN(c4ccccc4)CC3)cc2)CCOCC1" , same question.
OUT: 8.77

IN: "C#CCN1CCC(C(=O)NO)(S(=O)(=O)c2ccc(Oc3ccc(-n4ccnc4)cc3)cc2)CC1" , same question.
OUT: 9.70

IN: "C#CCN1CCC(C(=O)NO)(S(=O)(=O)c2ccc(Oc3ccc4c(c3)OCO4)cc2)CC1" , same question.
OUT: 9.40

IN: "C#CCN1CCC(C(=O)NO)(S(=O)(=O)c2ccc(SC3CCCCC3)cc2)CC1" , same question.
OUT: 9.22

IN: "O=C(CS(=O)(=O)c1ccc(Oc2ccccc2)cc1)NO" , same question.
OUT: 8.29

IN: "O=C(NO)C1(S(=O)(=O)c2ccc(Sc3ccc(F)cc3)cc2)CCN(C2CC2)CC1" , same question.
OUT: 9.35

IN: "C#CCN1CCC(C(=O)NO)(S(=O)(=O)c2ccc(Oc3ccccc3)cc2)CC1" , same question.
OUT: 9.60

IN: "CCCCOC1CCN(c2ccc(S(=O)(=O)C3(C(=O)NO)CCOCC3)cc2)CC1" , same question.
OUT: 8.62
